Tested on: HPV-16
Assay: qPCR sensitivity against HPV-HNSCC tumor samples diluted among 10 ng normal human DNA
Settings: Sample # 27
quantity.name: Threshold of tumor cell numbers for HPV-16 detection (tumor cells)

[
  {
    "molecule": "BR E6-1: HPV-16 E6 region (172-373 bp) primer/probe set, SEQ ID NO: 58-60 (nucleic acid, chemistry not given here) DNA 1: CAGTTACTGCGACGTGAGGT DNA 2: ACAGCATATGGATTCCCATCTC DNA 3: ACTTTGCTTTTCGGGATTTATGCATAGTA",
    "units.text": "tumor cells",
    "quantitative.readout": 1.0
  },
  {
    "molecule": "HR E5L2-4: primer/probe set for junction between E5 and L2, SEQ ID NO: 55-57 (same as SEQ ID NO: 4-6) (nucleic acid, chemistry not given here) DNA 1: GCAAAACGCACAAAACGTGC DNA 2: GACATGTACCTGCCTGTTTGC DNA 3: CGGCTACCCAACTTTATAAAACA",
    "units.text": "tumor cells",
    "quantitative.readout": 0.6
  },
  {
    "molecule": "BR E1-5: HPV-16 E1 region primer/probe set, SEQ ID NO: 40-42 (same as SEQ ID NO: 1-3) (nucleic acid, chemistry not given here) DNA 1: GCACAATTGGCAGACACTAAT DNA 2: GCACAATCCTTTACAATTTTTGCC DNA 3: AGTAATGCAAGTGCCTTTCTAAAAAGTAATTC",
    "units.text": "tumor cells",
    "quantitative.readout": 0.6
  },
  {
    "molecule": "BR E1-4: HPV-16 E1 region primer/probe set, SEQ ID NO: 37-39 (nucleic acid, chemistry not given here) DNA 1: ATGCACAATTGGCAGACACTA DNA 2: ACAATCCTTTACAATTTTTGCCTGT DNA 3: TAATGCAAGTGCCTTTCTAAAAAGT",
    "units.text": "tumor cells",
    "quantitative.readout": 0.6
  },
  {
    "molecule": "BR E1-6: HPV-16 E1 region primer/probe set, SEQ ID NO: 43-45 (nucleic acid, chemistry not given here) DNA 1: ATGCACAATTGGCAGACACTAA DNA 2: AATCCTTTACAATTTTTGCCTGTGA DNA 3: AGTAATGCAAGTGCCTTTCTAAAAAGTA",
    "units.text": "tumor cells",
    "quantitative.readout": 0.6
  },
  {
    "molecule": "E7: previously designed (historical) HPV-16 E7 primers and Taqman probe, SEQ ID NO: 10-12; part of CLIA test (nucleic acid, Taqman probe, labels not given here, part of CLIA test) DNA 1: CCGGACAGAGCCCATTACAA DNA 2: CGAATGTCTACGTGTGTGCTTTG DNA 3: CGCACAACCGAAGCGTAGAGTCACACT",
    "units.text": "tumor cells",
    "quantitative.readout": 1.0
  },
  {
    "molecule": "E6: previously designed (historical) HPV-16 E6 primers and Taqman probe, SEQ ID NO: 7-9, positive control (nucleic acid, Taqman probe, labels not given here) DNA 1: TCAGGACCCACAGGAGCG DNA 2: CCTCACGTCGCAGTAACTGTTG DNA 3: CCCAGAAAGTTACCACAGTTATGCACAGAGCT",
    "units.text": "tumor cells",
    "quantitative.readout": 15.0
  }
]

// data source = patent US20200399712A1
